- System: PBMC (polyclonal gluten-specific T cells) of paediatric and adult CD patients
- assay.details: IFN-γ ELISpot of PBMC after 3 day oral wheat challenge (SFU, % of maximal peptide response, dominance scores, EC50; Examples 5-6)
- Assay type: cell-based, human
- conditions: patient U; max peptide 81 SFU
measured.quantity: Significant response as percentage of maximal peptide SFU

Recorded Significant response as percentage of maximal peptide SFU, per entry:
sequence.code	result
QPFPQPQQPFSQQ	′′ (21-40% = ′′)
LQPFPQPELPYSQP	′′ (21-40% = ′′)
PFPEQPEQPFPQP	′ (11-20% = ′)
LPYPQPELPYPQP [Peptide W01]	′′′ (41-70% = ′′′)
QPFPQPEQPIPVQ	′′ (21-40% = ′′)
LPYPQPQLPYPQP	′′ (21-40% = ′′)
QPFPQPEQPFPWQP	′′ (21-40% = ′′)
LQPFPQPELPFPQP [Peptide W06]	′′′′

# map each sequence to its Significant response as percentage of maximal peptide SFU
1. PFPLQPEQPFPQP
2. LQPFPQPELPYPQPQ
3. FLQPEQPFPEQPEQPYPEQPEQPFPQ
4. FPQPEQEFPQPQQ
5. QFIQPEQPFPQQ

-- reply
1. ′′ (21-40% = ′′)
2. ′′′ (41-70% = ′′′)
3. ′′ (21-40% = ′′)
4. ′ (11-20% = ′)
5. ′ (11-20% = ′)

# map each sequence to its Significant response as percentage of maximal peptide SFU
1. QPFPQPQQPIPVQ [Peptide W04]
2. QPFPQPEQPFPWQ [Peptide W03, contains DQ2.5-glia-w1 and w2]

-- reply
["′′ (21-40% = ′′)", "′′′ (41-70% = ′′′)"]

---

- System: PBMC (polyclonal gluten-specific T cells) of paediatric and adult CD patients
- assay.details: IFN-γ ELISpot of PBMC after 3 day oral wheat challenge (SFU, % of maximal peptide response, dominance scores, EC50; Examples 5-6)
- Type: cell-based, human
- conditions: subject six (3-5yrs/6-10yrs part), following wheat challenge
Param label: returns Criterion met when Cross-reactive T cell response < 5 SFU, returns Criterion not met otherwise, including exact equality.

sequence.code	system	category.label
QEFPQPEQPFPQQ	PBMC (polyclonal gluten-specific T cells) of paediatric and adult CD patients	Criterion not met
QPFPQPEQPTPIQ	PBMC (polyclonal gluten-specific T cells) of paediatric and adult CD patients	Criterion not met
FPQTEQPEQPFPQP	PBMC (polyclonal gluten-specific T cells) of paediatric and adult CD patients	Criterion met

-- ask Lab note: confirm whether the reported Cross-reactive T cell response for this sequence is below 5 SFU, equality not counting. sequence: "QPFPQPEQPIPQQ"
-- reply Criterion not met

-- ask Lab note: confirm whether the reported Cross-reactive T cell response for this sequence is below 5 SFU, equality not counting. sequence: "QPFPQPEQPFSWQ"
-- reply Criterion not met

-- ask Lab note: confirm whether the reported Cross-reactive T cell response for this sequence is below 5 SFU, equality not counting. sequence: "QPFPQPEQPFPLQ"
-- reply Criterion not met

-- ask Lab note: confirm whether the reported Cross-reactive T cell response for this sequence is below 5 SFU, equality not counting. sequence: "NPLQPEQPFPLQPQPP"
-- reply Criterion not met

-- ask Lab note: confirm whether the reported Cross-reactive T cell response for this sequence is below 5 SFU, equality not counting. sequence: "QPEQPFPLQPEQPVP"
-- reply Criterion met

-- ask Lab note: confirm whether the reported Cross-reactive T cell response for this sequence is below 5 SFU, equality not counting. sequence: "PFPLQPEQPVPEQPQ"
-- reply Criterion met

-- ask Lab note: confirm whether the reported Cross-reactive T cell response for this sequence is below 5 SFU, equality not counting. sequence: "QPFPQPEQQLPLQ"
-- reply Criterion not met

-- ask Lab note: confirm whether the reported Cross-reactive T cell response for this sequence is below 5 SFU, equality not counting. sequence: "PEQPFQPEQPFPQQ"
-- reply Criterion met

-- ask Lab note: confirm whether the reported Cross-reactive T cell response for this sequence is below 5 SFU, equality not counting. sequence: "PEQPQPFPEQPVPQQP"
-- reply Criterion met

-- ask Lab note: confirm whether the reported Cross-reactive T cell response for this sequence is below 5 SFU, equality not counting. sequence: "QPFPQPEQPFPWQP"
-- reply Criterion not met

-- ask Lab note: confirm whether the reported Cross-reactive T cell response for this sequence is below 5 SFU, equality not counting. sequence: "QPFPQPEQPFPQS"
-- reply Criterion not met

-- ask Lab note: confirm whether the reported Cross-reactive T cell response for this sequence is below 5 SFU, equality not counting. sequence: "QPFPQPEQPIPYQ"
-- reply Criterion not met

-- ask Lab note: confirm whether the reported Cross-reactive T cell response for this sequence is below 5 SFU, equality not counting. sequence: "LPFPQPEQPFVVV"
-- reply Criterion not met

-- ask Lab note: confirm whether the reported Cross-reactive T cell response for this sequence is below 5 SFU, equality not counting. sequence: "QLFPLPEQPFPQP"
-- reply Criterion met

---

- Test system: PBMC (polyclonal gluten-specific T cells) of paediatric and adult CD patients
- assay.details: IFN-γ ELISpot of PBMC after 3 day oral wheat challenge (SFU, % of maximal peptide response, dominance scores, EC50; Examples 5-6)
- Format: cell-based, human
- conditions: patient A, 11-17 yrs; after oral wheat challenge; cut-off 10 SFU
Answer each item with its documented IFN-γ ELISpot response.
Answers are plain numbers, in SFU.

Recorded IFN-γ ELISpot response, per entry:
sequence.code	IFN-γ ELISpot response [SFU]
PEQTFPEQPQLPF	3
LPYPQPELPYPQP [Peptide W01]	2
PFPLQPEQPFPQP	6
PFPEQPEQPYPQQ	0
GLERPWQEQPLPPQ	4

# map each sequence to its IFN-γ ELISpot response
1. PFPEQPEQPFPQP
2. QPFPQPEQPFPWQP
3. LQPFPQPELPYPQPQ
4. LQPFPQPQLPYPQP
5. FPQPEQEFPQPQQ

-- reply
[4, 3.5, 2.5, 1, 6]

# map each sequence to its IFN-γ ELISpot response
1. PFPQQPQQPFPQP
2. LQPFPQPELPYSQP

-- reply
0
3

# map each sequence to its IFN-γ ELISpot response
1. QPFPQPEQPFPWQ [Peptide W03, contains DQ2.5-glia-w1 and w2]
2. LQPRPQPELPYPQP
3. LQPFPQPELPFPQP [Peptide W06]
4. FPQPQQQFPQPQQ
5. YEVIRSLVLRTLPN

-- reply
1. 5
2. 6
3. 5
4. 2
5. 20

---

- System: PBMC (polyclonal gluten-specific T cells) of paediatric and adult CD patients
- assay.details: IFN-γ ELISpot of PBMC after 3 day oral wheat challenge (SFU, % of maximal peptide response, dominance scores, EC50; Examples 5-6)
- Assay type: cell-based, human
- conditions: subject Q, 11-17yrs, following wheat challenge
Param label: returns Condition met when Cross-reactive T cell response < 40 SFU, returns Condition not met otherwise, including exact equality.

Study these solved cases before continuing.
sequence.code	system	category.label
PEQPFQPEQPFPQQ	PBMC (polyclonal gluten-specific T cells) of paediatric and adult CD patients	Condition met
QPFPQPEQPFPWQP	PBMC (polyclonal gluten-specific T cells) of paediatric and adult CD patients	Condition not met
PEQPQPFPEQPVPQQP	PBMC (polyclonal gluten-specific T cells) of paediatric and adult CD patients	Condition met
QPFPQPEQPFPQS	PBMC (polyclonal gluten-specific T cells) of paediatric and adult CD patients	Condition not met
QPFPQPEQPFRQQ	PBMC (polyclonal gluten-specific T cells) of paediatric and adult CD patients	Condition not met

-- ask Lab note: confirm whether the reported Cross-reactive T cell response for this sequence is below 40 SFU, equality not counting. sequence: "QPFPQPEQPFPLQ"
-- reply Condition not met

-- ask Lab note: confirm whether the reported Cross-reactive T cell response for this sequence is below 40 SFU, equality not counting. sequence: "FPQTEQPEQPFPQP"
-- reply Condition met

-- ask Lab note: confirm whether the reported Cross-reactive T cell response for this sequence is below 40 SFU, equality not counting. sequence: "NPLQPEQPFPLQPQPP"
-- reply Condition met

-- ask Lab note: confirm whether the reported Cross-reactive T cell response for this sequence is below 40 SFU, equality not counting. sequence: "QPFPQPEQPIPYQ"
-- reply Condition not met

-- ask Lab note: confirm whether the reported Cross-reactive T cell response for this sequence is below 40 SFU, equality not counting. sequence: "QPFPQPEQPIPQQ"
-- reply Condition not met

-- ask Lab note: confirm whether the reported Cross-reactive T cell response for this sequence is below 40 SFU, equality not counting. sequence: "QPEQPFPLQPEQPVP"
-- reply Condition met

-- ask Lab note: confirm whether the reported Cross-reactive T cell response for this sequence is below 40 SFU, equality not counting. sequence: "QPFPQPEQELPLQ"
-- reply Condition met

-- ask Lab note: confirm whether the reported Cross-reactive T cell response for this sequence is below 40 SFU, equality not counting. sequence: "QPFPQPEQQLPLQ"
-- reply Condition met

-- ask Lab note: confirm whether the reported Cross-reactive T cell response for this sequence is below 40 SFU, equality not counting. sequence: "PFPLQPEQPVPEQPQ"
-- reply Condition met

-- ask Lab note: confirm whether the reported Cross-reactive T cell response for this sequence is below 40 SFU, equality not counting. sequence: "LPFPQPEQPFVVV"
-- reply Condition met

-- ask Lab note: confirm whether the reported Cross-reactive T cell response for this sequence is below 40 SFU, equality not counting. sequence: "PEQPFPEQPQPYPQQP"
-- reply Condition met

-- ask Lab note: confirm whether the reported Cross-reactive T cell response for this sequence is below 40 SFU, equality not counting. sequence: "QEFPQPEQPFPQQ"
-- reply Condition not met

-- ask Lab note: confirm whether the reported Cross-reactive T cell response for this sequence is below 40 SFU, equality not counting. sequence: "QPFPQPEQPFSWQ"
-- reply Condition met

-- ask Lab note: confirm whether the reported Cross-reactive T cell response for this sequence is below 40 SFU, equality not counting. sequence: "QLFPLPEQPFPQP"
-- reply Condition met
